biological target: Vasopressin 1 (V1) receptor (Homo sapiens, UniProt P37288); assay: Vasopressin 1 (V1) receptor binding; conditions: platelet membranes from normal subjects; competition vs 1.5 nM 3H-vasopressin; 15 minutes at 30° C.; pH 7.4
Sequence (P37288 whole entry): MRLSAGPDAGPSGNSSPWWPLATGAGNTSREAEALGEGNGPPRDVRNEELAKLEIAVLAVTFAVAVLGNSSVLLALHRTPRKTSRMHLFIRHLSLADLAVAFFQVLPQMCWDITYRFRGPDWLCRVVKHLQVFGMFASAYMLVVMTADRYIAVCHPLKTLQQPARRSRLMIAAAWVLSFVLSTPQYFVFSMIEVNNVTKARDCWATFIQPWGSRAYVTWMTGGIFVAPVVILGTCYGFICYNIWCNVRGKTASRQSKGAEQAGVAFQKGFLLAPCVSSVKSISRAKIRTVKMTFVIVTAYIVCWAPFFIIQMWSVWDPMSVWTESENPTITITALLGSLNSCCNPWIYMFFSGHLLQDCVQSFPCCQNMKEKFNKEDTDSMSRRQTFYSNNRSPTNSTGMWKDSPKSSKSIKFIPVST
pIC50: −log10 of the molar value. Where a name gives a salt, the structure may show the parent alone.
Attribute Measured: pIC50

I: COc1cc(C(=O)N(C)c2ccc(C)cc2OCCCCCC(=O)N2CCN(C)CC2)ccc1C(=O)Nc1cccc2[nH]c(CN3CCN(C)CC3)nc12 [Example 115-81, trihydrochloride]
II: COc1cc(C(=O)N(C)c2ccc(C)cc2OCCCCCC(=O)N2CCN(C)CC2)ccc1C(=O)Nc1cccc2[nH]c(C)nc12 [Example 115-71, dihydrochloride]
// pick larger pIC50 from pair: I vs II Write down the label of the entry you select.
II
(II: 9.15, I: 8.35)
